All figures here come from patent US5530018A.

Molecular target: 5-HT3 receptor (Rattus norvegicus, UniProt P35563)
Sequence (P35563 24-483): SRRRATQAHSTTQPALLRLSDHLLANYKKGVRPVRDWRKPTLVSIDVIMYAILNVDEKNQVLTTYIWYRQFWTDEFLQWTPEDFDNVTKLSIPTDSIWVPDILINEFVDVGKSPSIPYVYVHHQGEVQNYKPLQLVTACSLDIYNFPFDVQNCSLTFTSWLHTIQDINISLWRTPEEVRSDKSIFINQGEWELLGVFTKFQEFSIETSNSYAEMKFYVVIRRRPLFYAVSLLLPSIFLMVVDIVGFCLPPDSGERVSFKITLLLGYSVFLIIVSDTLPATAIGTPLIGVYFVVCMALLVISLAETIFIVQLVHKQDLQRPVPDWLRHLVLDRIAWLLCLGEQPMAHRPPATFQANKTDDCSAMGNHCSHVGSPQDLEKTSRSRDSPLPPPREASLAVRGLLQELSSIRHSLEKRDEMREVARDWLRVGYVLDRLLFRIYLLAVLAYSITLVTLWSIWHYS
Where a name gives a salt, the structure may show the parent alone.
measured property: Ki (nM)
The response must be a number in nM with no trailing unit.

Notebook: COc1cc(N)c(Cl)cc1C(=O)N[C@@H]1[C@@H]2C[C@@H]3C[C@H]1CN3C2 [Example 6, monohydrochloride] , Ki read as 3.8

Notebook: COc1cc(N)c(Cl)cc1C(=O)N[C@H]1[C@@H]2C[C@@H]3C[C@H]1CN3C2 [Example 4, hydrochloride] , Ki read as 22

Notebook: COc1cc(N)c(Cl)cc1C(=O)NC[C@H]1[C@@H]2C[C@@H]3C[C@H]1CN3C2 [Example 14, monohydrochloride] , Ki read as 1.1
